tested on: 885512-296-R-J2-PDC complex spheroid growth, % test/control; assay: Anticancer human tumor 885512-296-R-J2-PDC patient-derived breast carcinoma cell line growth inhibition [Asc]; settings: compound alone; run of 10/03/2022
pIC50: −log10 of the molar value.

molecule	pIC50
CNC(C)C(=O)NC1CN(S(=O)(=O)c2cccc(S(=O)(=O)N3CCC4CCC(C(=O)NC(c5ccccc5)c5ccccc5)N4C(=O)C(NC(=O)C(C)NC)C3)c2)CCC2CCC(C(=O)NC(c3ccccc3)c3ccccc3)N2C1=O (stereo unspecified)	< 6.00

----------
test system: 885512-296-R-J2-PDC complex spheroid growth, % test/control; test: Anticancer human tumor 885512-296-R-J2-PDC cell line growth inhibition [Asc]; details: second compound 1 µM; first compound 0.03 µM; stronger effect = lower value;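 also: spheroids exposed to compounds for seven days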;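 as to viability, T/C: 100% = DMSO vehicle control wells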

compound	units text	viability, T/C
Cc1nc(N2CCC3(CC2)COC(C)C3N)c(CO)nc1Sc1ccnc(N)c1Cl (stereo not drawn) + Cc1c(S(C)(=O)=O)c(-c2cc(F)cc(N3CCN(c4ccc(NS(=O)(=O)c5ccc(NC(CCN6CCC(C(=O)OCCCP(=O)(O)O)CC6)CSc6ccccc6)c(S(=O)(=O)C(F)(F)F)c5)cc4)CC3)c2)c(-c2ccc(Cl)cc2)n1C(C)C	%	60.2
NC(=O)C(=Cn1cnc(-c2cc(C(F)(F)F)cc(C(F)(F)F)c2)n1)c1cncnc1 + CNC(C)C(=O)NC1CN(S(=O)(=O)c2cccc(S(=O)(=O)N3CCC4CCC(C(=O)NC(c5ccccc5)c5ccccc5)N4C(=O)C(NC(=O)C(C)NC)C3)c2)CCC2CCC(C(=O)NC(c3ccccc3)c3ccccc3)N2C1=O	%	81.8
CCN1C(C(=O)NC23CCC(C(=O)O)(CC2)CC3)C(c2cccc(Cl)c2F)C2(C(=O)Nc3cc(Cl)ccc32)C12CCCCC2 (stereo not drawn) + CNC(C)C(=O)NC1CN(S(=O)(=O)c2cccc(S(=O)(=O)N3CCC4CCC(C(=O)NC(c5ccccc5)c5ccccc5)N4C(=O)C(NC(=O)C(C)NC)C3)c2)CCC2CCC(C(=O)NC(c3ccccc3)c3ccccc3)N2C1=O	%	118

----------
Overview of recorded viability, T/C for various molecules
system: 885512-296-R-J2-PDC complex spheroid growth, % test/control; test: Anticancer human tumor 885512-296-R-J2-PDC cell line growth inhibition [Asc]; conditions: second compound 0.949 µM; first compound 0.0316 µM; stronger effect = lower value;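 also: spheroids exposed to compounds for seven days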;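 as to viability, T/C: 100% = DMSO vehicle control wells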

molecule	viability, T/C
C=C(F)C(=O)N1CCN(c2nc(OCC3CCCN3C)nc3c2CCN(c2cccc4cccc(Cl)c24)C3)CC1CC#N (stereo not drawn) + CCN1C(C(=O)NC23CCC(C(=O)O)(CC2)CC3)C(c2cccc(Cl)c2F)C2(C(=O)Nc3cc(Cl)ccc32)C12CCCCC2	69%
NC1CCC(NC2CC2c2ccccc2)CC1 (stereo not drawn) + CCN1C(C(=O)NC23CCC(C(=O)O)(CC2)CC3)C(c2cccc(Cl)c2F)C2(C(=O)Nc3cc(Cl)ccc32)C12CCCCC2	103%
COc1c(OCCCN2CCOCC2)ccc2c3n(c(=NC(=O)c4cnc(N)nc4)nc12)CCN3 + CCN1C(C(=O)NC23CCC(C(=O)O)(CC2)CC3)C(c2cccc(Cl)c2F)C2(C(=O)Nc3cc(Cl)ccc32)C12CCCCC2	64.4%

----------
Overview of recorded viability, T/C for various compounds
tested on: 885512-296-R-J2-PDC complex spheroid growth, % test/control; experiment: Anticancer human tumor 885512-296-R-J2-PDC cell line growth inhibition [Asc]; conditions: second compound 1 µM; first compound 0.949 µM; stronger effect = lower value;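 also: spheroids exposed to compounds for seven days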;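 as to viability, T/C: 100% = DMSO vehicle control wells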
endpoint label: viability, T/C (%)

compound	test value
Cc1nc(N2CCC3(CC2)COC(C)C3N)c(CO)nc1Sc1ccnc(N)c1Cl (centres undefined) + Cc1c(S(C)(=O)=O)c(-c2cc(F)cc(N3CCN(c4ccc(NS(=O)(=O)c5ccc(NC(CCN6CCC(C(=O)OCCCP(=O)(O)O)CC6)CSc6ccccc6)c(S(=O)(=O)C(F)(F)F)c5)cc4)CC3)c2)c(-c2ccc(Cl)cc2)n1C(C)C	42.6
CCN1C(C(=O)NC23CCC(C(=O)O)(CC2)CC3)C(c2cccc(Cl)c2F)C2(C(=O)Nc3cc(Cl)ccc32)C12CCCCC2 (centres undefined) + CNC(C)C(=O)NC1CN(S(=O)(=O)c2cccc(S(=O)(=O)N3CCC4CCC(C(=O)NC(c5ccccc5)c5ccccc5)N4C(=O)C(NC(=O)C(C)NC)C3)c2)CCC2CCC(C(=O)NC(c3ccccc3)c3ccccc3)N2C1=O	90
Cc1nc(N2CCC3(CC2)COC(C)C3N)c(CO)nc1Sc1ccnc(N)c1Cl (centres undefined) + CNC(C)C(=O)NC1CN(S(=O)(=O)c2cccc(S(=O)(=O)N3CCC4CCC(C(=O)NC(c5ccccc5)c5ccccc5)N4C(=O)C(NC(=O)C(C)NC)C3)c2)CCC2CCC(C(=O)NC(c3ccccc3)c3ccccc3)N2C1=O	41.1
CCN1C(C(=O)NC23CCC(C(=O)O)(CC2)CC3)C(c2cccc(Cl)c2F)C2(C(=O)Nc3cc(Cl)ccc32)C12CCCCC2 (centres undefined) + Cc1c(S(C)(=O)=O)c(-c2cc(F)cc(N3CCN(c4ccc(NS(=O)(=O)c5ccc(NC(CCN6CCC(C(=O)OCCCP(=O)(O)O)CC6)CSc6ccccc6)c(S(=O)(=O)C(F)(F)F)c5)cc4)CC3)c2)c(-c2ccc(Cl)cc2)n1C(C)C	67.1
